- assay protocol: In vivo pharmacokinetics, lung tissue homogenate (UPLC-MS/MS)
- Parameters: species or system rat
- experimental context: male, Sprague-Dawley (SD), inhaled; rat lung tissue homogenate; pulmonary administration BA/AH-DPI 9 mg/kg; 30 min; read-out: Drug concentration of AH in lung tissue
Structures can show the parent of a compound that is named as a salt.
attribute measured: concentration at 30 min (ng/mL)
# value in ng/mL; strip the unit string

Challenge: Answer with the recorded concentration at 30 min for the compound listed here: Nc1c(Br)cc(Br)cc1CNC1CCC(O)CC1 (stereo not shown) [AH, ambroxol hydrochloride]
Response given: 798

---

- assay protocol: In vivo pharmacokinetics, lung tissue homogenate (UPLC-MS/MS)
- Design: species or system rat
- experimental context: male, Sprague-Dawley (SD); rat lung tissue homogenate; tail intravenous injection BA/AH-DPI saline solution 9 mg/kg; 30 min; read-out: Drug concentration of AH in lung tissue
Where a name gives a salt, the structure may show the parent alone.
attribute measured: concentration at 30 min (ng/mL)
# value in ng/mL; strip the unit string

Challenge: Answer with the recorded concentration at 30 min for the molecule listed here: Nc1c(Br)cc(Br)cc1CNC1CCC(O)CC1 (stereo not shown) [AH, ambroxol hydrochloride]
Response given: 780

---

- assay protocol: In vivo pharmacokinetics, plasma (UPLC-MS/MS)
- Set-up: species or system rat
- experimental context: male, SD; BA in rat plasma; tail intravenous injection group, 9 mg/kg
attribute measured: Tmax (min)
# value in min; strip the unit string

Challenge: Answer with the recorded Tmax for the compound listed here: `O=C(O)[C@H]1O[C@@H](Oc2cc3oc(-c4ccccc4)cc(=O)c3c(O)c2O)[C@H](O)[C@@H](O)[C@@H]1O`
Response given: 2.28

---

- assay protocol: In vivo pharmacokinetics, plasma (UPLC-MS/MS)
- Set-up: species or system rat
- experimental context: male, SD, inhaled; rat plasma; pulmonary administration BA/AH-DPI 9 mg/kg; 360 min; read-out: Blood concentration of AH
Counter-ions that a name gives are not always drawn.
attribute measured: concentration at 360 min (ng/mL)
# value in ng/mL; strip the unit string

Challenge: Answer with the recorded concentration at 360 min for the molecule listed here: Nc1c(Br)cc(Br)cc1CNC1CCC(O)CC1 (stereo not shown) [AH, ambroxol hydrochloride]
Response given: 8.57

---

- assay protocol: In vivo pharmacokinetics, plasma (UPLC-MS/MS)
- Design: species or system rat
- experimental context: male, SD, inhaled; rat plasma; pulmonary administration BA/AH-DPI 9 mg/kg; 10 min; read-out: Blood concentration of AH
Structures can show the parent of a compound that is named as a salt.
attribute measured: concentration at 10 min (ng/mL)
# value in ng/mL; strip the unit string

Challenge: Answer with the recorded concentration at 10 min for the compound listed here: Nc1c(Br)cc(Br)cc1CNC1CCC(O)CC1 (stereo not shown) [AH, ambroxol hydrochloride]
Response given: 1130

---

- assay protocol: In vivo pharmacokinetics, plasma (UPLC-MS/MS)
- Set-up: species or system rat
- experimental context: male, Sprague-Dawley (SD), inhaled; rat plasma; pulmonary administration BA/AH-DPI 9 mg/kg; 4 min; read-out: Blood concentration of BA
attribute measured: concentration at 4 min (ng/mL)
# value in ng/mL; strip the unit string

Challenge: Answer with the recorded concentration at 4 min for the molecule listed here: `O=C(O)[C@H]1O[C@@H](Oc2cc3oc(-c4ccccc4)cc(=O)c3c(O)c2O)[C@H](O)[C@@H](O)[C@@H]1O`
Response given: 1740
